Source: the NIST ThermoML archive (doi:10.1021/je5009729)

Conditions: 298.15 K; Liquid; Gas chromatography
readout-name: vapor or sublimation pressure (kPa)
# output: bare number, implied unit kPa

Q: Can you share its vapor or sublimation pressure? I mean this compound: CCCCCCCCCCC/C=C\CCCCC(=O)O [(Z)-6-octadecenoic acid]
A: 1.13e-08

Q: Can you share its vapor or sublimation pressure? I mean this compound: CCCCCC=CCC=CCC=CCC=CCCCC(=O)O [5,8,11,14-eicosatetraenoic acid]
A: 6.5e-10

Q: Can you share its vapor or sublimation pressure? I mean this compound: CCCCCCCC/C=C\CCCCCCCC(=O)O [(Z)-9-octadecenoic acid]
A: 1.01e-08

Q: Can you share its vapor or sublimation pressure? I mean this compound: CCCCCCCCCCCCCCCCCCCCCCCCCC(=O)O [hexacosanoic acid]
A: 2.5e-12

Q: Can you share its vapor or sublimation pressure? I mean this compound: CC/C=C\C/C=C\C/C=C\C/C=C\C/C=C\C/C=C\CCC(=O)O [cis-4,7,10,13,16,19-docosahexaenoic acid]
A: 2.2e-11

Q: Can you share its vapor or sublimation pressure? I mean this compound: CCCCCC/C=C\CCCCCCCC(=O)O [cis-9-hexadecenoic acid]
A: 6.9e-08

Q: Can you share its vapor or sublimation pressure? I mean this compound: CCCCCCCCCCCCCCCCCCCCCCCC(=O)O [lignoceric acid]
A: 1.1e-11

Q: Can you share its vapor or sublimation pressure? I mean this compound: CCCCCCCC/C=C\CCCCCCCCCCCCCC(=O)O [(Z)-tetracos-15-enoic acid]
A: 1e-11

Q: Can you share its vapor or sublimation pressure? I mean this compound: CCCCCCCC/C=C\CCCCCCCCCC(=O)O [(11Z)-eicosenoic acid]
A: 1.18e-09
